Cited source for all entries: ChEMBL document CHEMBL3351346

- methodNotes: Stability in rat plasma assessed as compound remaining at 50 uM at 37 degC after 60 mins by LC-MS/MS method
- Assay type: ADME, cell-free
- conditionDescription: read-out: Stability
parameter: remaining at 1 h, 50 µM (%)

structureNotation	parameter	experimentalValue
C[C@@H](O)[C@H]1C(=O)N2C(C(=O)OCOC(=O)OC(C)(C)C)=C(S[C@@H]3CN[C@H](C(=O)Nc4cccc(C(=O)OCOC(=O)OC(C)(C)C)c4)C3)[C@H](C)[C@H]12	remaining at 1 h, 50 µM	8
C[C@@H](O)[C@H]1C(=O)N2C(C(=O)OCOC(=O)C3CCCCC3)=C(S[C@@H]3CN[C@H](C(=O)Nc4cccc(C(=O)OCOC(=O)C5CCCCC5)c4)C3)[C@H](C)[C@H]12	remaining at 1 h, 50 µM	10
COC(=O)OCOC(=O)C1=C(S[C@@H]2CN[C@H](C(=O)Nc3cccc(C(=O)O)c3)C2)[C@H](C)[C@@H]2[C@@H]([C@@H](C)O)C(=O)N12	remaining at 1 h, 50 µM	0
CC(C)OC(=O)OCOC(=O)C1=C(S[C@@H]2CN[C@H](C(=O)Nc3cccc(C(=O)OCOC(=O)OC(C)C)c3)C2)[C@H](C)[C@@H]2[C@@H]([C@@H](C)O)C(=O)N12	remaining at 1 h, 50 µM	3
COC(=O)C1=C(S[C@@H]2CN[C@H](C(=O)Nc3cccc(C(=O)OC)c3)C2)[C@H](C)[C@@H]2[C@@H]([C@@H](C)O)C(=O)N12	remaining at 1 h, 50 µM	0
CCOC(=O)C1=C(S[C@@H]2CN[C@H](C(=O)Nc3cccc(C(=O)OCC)c3)C2)[C@H](C)[C@@H]2[C@@H]([C@@H](C)OC(=O)[C@@H](N)C(C)C)C(=O)N12	remaining at 1 h, 50 µM	0
C[C@@H](O)[C@H]1C(=O)N2C3=C(S[C@@H]4CN[C@@H](C4)C(=O)Nc4cccc(c4)C(=O)OCCCCOC3=O)[C@H](C)[C@H]12	remaining at 1 h, 50 µM	0
CCOC(=O)C1=C(S[C@@H]2CN[C@H](C(=O)Nc3cccc(C(=O)OCC)c3)C2)[C@H](C)[C@@H]2[C@@H]([C@@H](C)OC(=O)CC)C(=O)N12	remaining at 1 h, 50 µM	0
CCOC(=O)C1=C(S[C@@H]2CN[C@H](C(=O)Nc3cccc(C(=O)OCC)c3)C2)[C@H](C)[C@@H]2[C@@H]([C@@H](C)OC(C)=O)C(=O)N12	remaining at 1 h, 50 µM	0
C[C@@H](O)[C@H]1C(=O)N2C(C(=O)OCC(F)(F)F)=C(S[C@@H]3CN[C@H](C(=O)Nc4cccc(C(=O)OCC(F)(F)F)c4)C3)[C@H](C)[C@H]12	remaining at 1 h, 50 µM	3
Cc1oc(=O)oc1COC(=O)N1C[C@@H]2C[C@H]1C(=O)Nc1cccc(c1)C(=O)OCc1oc(=O)oc1COC(=O)C1=C(S2)[C@H](C)[C@@H]2[C@@H]([C@@H](C)O)C(=O)N12	remaining at 1 h, 50 µM	0
